experiment: in vitro; conditions: CD-1, mouse, liver microsomes
Description: Metabolic stability in CD-1 mouse liver microsomes assessed as intrinsic clearance at 0.3 uM per mg of protein upto 1 hrs
value.kind: microsomal CLint at 1 h, 0.3 µM
Numeric answer plus unit only.

Which microsomal CLint at 1 h, 0.3 µM is listed for `Cn1cc2c(c1C(=O)Nc1ccc(F)c(Cl)c1)CC[C@@H]2NC(=O)OCc1c[nH]nn1` ? 21.6 µL/min/mg

Which microsomal CLint at 1 h, 0.3 µM is listed for `Cn1cnc(COC(=O)N[C@H]2CCc3c(C(=O)Nc4ccc(F)c(Cl)c4)ccc(F)c32)n1` ? 20.6 µL/min/mg

Which microsomal CLint at 1 h, 0.3 µM is listed for `Cc1c2c(c(C(=O)Nc3ccc(F)c(Cl)c3)n1C)CC[C@@H]2NC(=O)OCc1ncn(C)n1` ? 52.8 µL/min/mg

Which microsomal CLint at 1 h, 0.3 µM is listed for `Cn1cnc(COC(=O)N[C@H]2CCc3c2c(Br)n(C)c3C(=O)Nc2ccc(F)c(Cl)c2)n1` ? 31.4 µL/min/mg

Then this compound:
Which microsomal CLint at 1 h, 0.3 µM is listed for `Cn1cc(COC(=O)N[C@H]2CCc3c2cn(C)c3C(=O)Nc2ccc(F)c(Cl)c2)nn1` ? 38.4 µL/min/mg
